Data provenance is the supplement of paper PMC10567573.

B1: GNB5 (parent)
chain: YYPSGDAFASGSDDATCRLYDLRA

variants of: B1; assay: protein stability index of a GFP-peptide fusion (GPS, HEK-293T) (PSI 1-6); higher = more stable; conditions: c terminus: a fixed tail appended;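 also: lentivirally expressed fusions sorted by FACS into six bins by GFP to DsRed ratio, PSI derived from sequencing read proportions per bin multiplied by bin number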
measurement label: protein stability index
Reply: number alone, nothing else.

Example entries and their recorded answers appear below.
Y20I
2.84
T16N
2.69
D6G
2.72
R18N
2.54

(Q) What measured protein stability index goes with S12L ?
(A) 2.16

(Q) // repeat for L19D and report
(A) 3.34

(Q) Next record, please: R23S
(A) 2.81
